Some compounds, each annotated with its measured absorbance of the Euglena gracilis culture solution.
Test system: Euglena gracilis
Conditions: Table 4; sodium acetate added; 680 nm; cultivation time 2 Days
Reported Endpoint: absorbance of the Euglena gracilis culture solution (AU)

INSERT INTO measurements (compound, value_units, value_measured) VALUES
  ('CC(=O)[O-].[Na+] [Example 15, sodium acetate]', 'AU', 3.803),
  ('CC(=O)[O-].[Na+] [Example 13, sodium acetate]', 'AU', 3.861),
  ('CC(=O)[O-].[Na+] [Example 12, sodium acetate]', 'AU', 3.969),
  ('CC(=O)[O-].[Na+] [Example 14, sodium acetate]', 'AU', 3.709),
  ('CC(=O)[O-].[Na+] [Example 11, sodium acetate]', 'AU', 3.898);

###

Test system: Euglena gracilis
Conditions: Table 4; sodium acetate added; 680 nm; cultivation time 5 Days
Some molecules, each annotated with its measured absorbance of the Euglena gracilis culture solution.
Reported Endpoint: absorbance of the Euglena gracilis culture solution (AU)

INSERT INTO measurements (molecule, value_units, value_measured) VALUES
  ('CC(=O)[O-].[Na+] [Example 12, sodium acetate]', 'AU', 8.442),
  ('CC(=O)[O-].[Na+] [Example 13, sodium acetate]', 'AU', 8.561),
  ('CC(=O)[O-].[Na+] [Example 15, sodium acetate]', 'AU', 8.405),
  ('CC(=O)[O-].[Na+] [Example 14, sodium acetate]', 'AU', 8.665),
  ('CC(=O)[O-].[Na+] [Example 11, sodium acetate]', 'AU', 9.852);

Source: patent US20250084033A1
